B1: Steroid hormone receptor ERR2, residues 100 to 176; numbered along this chain, O95718 (parent)
chain: KRLCLVCGDIASGYHYGVASCEACKAFFKRTIQGNIEYSCPATNECEITKRRRKSCQACRFMKCLKVGMLKEGVRLD

- Variants of: B1
- Assay Explanation: abundance fitness (aPCA) (normalised: wild type 0, dead -1); higher = more abundant; growth selection in yeast, the domain comes from the species named
- Measurement Setup: Homo sapiens
Each entry below carries its recorded abundance fitness.
Form field (numeric): enter value without unit.

Answered cases to consult:
KRLCLVCGDIASGYHYGVASCEACKAFFKRTIQGNIEYSCPATNEEEITKRRRKSCQACRFMKCLKVGMLKEGVRLD ... -0.623
KRLCLVCGDIASQYHYGVASCEACKAFFKRTIQGNIEYSCPATNECEITKRRRKSCQACRFMKCLKVGMLKEGVRLD ... -0.244
KRLCLVCGDIAHGYHYGVASCEACKAFFKRTIQGNIEYSCPATNECEITKRRRKSCQACRFMKCLKVGMLKEGVRLD ... 0.082

Return reported abundance fitness; argument: KRLCLVCGDIASGYHYGVASCEACKAFFKRTIQGNIEYSCPATNDCEITKRRRKSCQACRFMKCLKVGMLKEGVRLD
-0.086

Thanks! And KRLCLVCGDIASGYHYGVASCEANKAFFKRTIQGNIEYSCPATNECEITKRRRKSCQACRFMKCLKVGMLKEGVRLD ?
-0.939
